// values below are reported OD450
assay target: T1, human MSLN-R3 protein (human, UniProt Q13421 487-598)
T1 construct: also called hMSLN-R3
T1 sequence (Q13421 495-606, form in doubt): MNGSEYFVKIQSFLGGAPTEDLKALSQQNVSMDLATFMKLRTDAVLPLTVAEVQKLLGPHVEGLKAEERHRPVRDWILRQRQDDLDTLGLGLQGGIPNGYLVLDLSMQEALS
assay summary: ELISA on coated antigen, antibody 0.01 nM
// note: answer is a bare numeric in OD450

F7.33.24-H3 (scFv, not shown: small tags and cut ends, also called S009-F7.33.24 humanized antibody VH1 + VL3) scFv: EVQLVQSGAEVKKPGASVKVSCKASGYTFTSYWMHWVRQAPGQRLEWMGNVNPSNGGSNYNEKFKNRVTITVDKSASTAYMELSSLRSEDTAVYYCAPHYIGSRPGFAYWGQGTLVTVSSGGGGSGGGGSGGGGSDIVMTQTPLSLSVTPGQPASISCKASQNVGTNIAWYQQKPGQSPQALIYSASYRYSGVPDRFSGSGSGTDFTLKISRVEAEDVGVYYCQQYNSYPLTFGGGTKVEIK	0.04

Field: next binder
**Query** Entry F7.33.24 (scFv, not shown: small tags and cut ends, also called S009-F7.33.24 (parental variable regions, in the humanized-antibody ELISA)) scFv: QVQLQQPGTELVKPGASVKLSCKASGYTFTSYWMHWVKQRPGQGLEWIGNVNPSNGGSNYNEKFKNKATLTVDKSSSTADMQLNSLTSEDSAVYYCAPHYIGSRPGFAYWGQGTLVTVSGGGGGSGGGGSGGGGSDIVMTQSQKFMSTSVGDRVSVTCKASQNVGTNIAWYQQKPGQSPKALIYSASYRYSGVPDRFTGSGSGTDFTLTITNVQSEDLAEYFCQQYNSYPLTFGGGTKVEIK needs its OD450 filled in; supply it.
**Result** 0.04

Value source: patent US20250250357A1
